# credit: patent US20240376185A1

Target: tetanus neurotoxin (TeNT), authentic tetanus holotoxin (Clostridium tetani, UniProt P04958 2-1315)
Sequence (P04958 2-457 limits assumed, chain 1 of 2): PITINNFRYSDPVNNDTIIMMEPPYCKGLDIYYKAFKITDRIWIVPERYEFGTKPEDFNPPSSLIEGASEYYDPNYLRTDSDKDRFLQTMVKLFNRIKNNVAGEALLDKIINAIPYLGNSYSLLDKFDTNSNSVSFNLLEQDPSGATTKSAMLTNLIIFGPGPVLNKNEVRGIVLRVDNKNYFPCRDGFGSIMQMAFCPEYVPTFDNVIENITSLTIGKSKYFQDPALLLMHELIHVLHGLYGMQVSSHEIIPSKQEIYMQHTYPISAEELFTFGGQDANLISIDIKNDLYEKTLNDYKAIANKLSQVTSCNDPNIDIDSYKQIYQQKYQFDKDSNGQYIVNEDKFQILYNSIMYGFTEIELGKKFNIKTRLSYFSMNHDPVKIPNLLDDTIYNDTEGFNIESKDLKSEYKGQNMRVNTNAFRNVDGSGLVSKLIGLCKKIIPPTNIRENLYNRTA
Sequence (P04958 458-1315 limits assumed, chain 2 of 2): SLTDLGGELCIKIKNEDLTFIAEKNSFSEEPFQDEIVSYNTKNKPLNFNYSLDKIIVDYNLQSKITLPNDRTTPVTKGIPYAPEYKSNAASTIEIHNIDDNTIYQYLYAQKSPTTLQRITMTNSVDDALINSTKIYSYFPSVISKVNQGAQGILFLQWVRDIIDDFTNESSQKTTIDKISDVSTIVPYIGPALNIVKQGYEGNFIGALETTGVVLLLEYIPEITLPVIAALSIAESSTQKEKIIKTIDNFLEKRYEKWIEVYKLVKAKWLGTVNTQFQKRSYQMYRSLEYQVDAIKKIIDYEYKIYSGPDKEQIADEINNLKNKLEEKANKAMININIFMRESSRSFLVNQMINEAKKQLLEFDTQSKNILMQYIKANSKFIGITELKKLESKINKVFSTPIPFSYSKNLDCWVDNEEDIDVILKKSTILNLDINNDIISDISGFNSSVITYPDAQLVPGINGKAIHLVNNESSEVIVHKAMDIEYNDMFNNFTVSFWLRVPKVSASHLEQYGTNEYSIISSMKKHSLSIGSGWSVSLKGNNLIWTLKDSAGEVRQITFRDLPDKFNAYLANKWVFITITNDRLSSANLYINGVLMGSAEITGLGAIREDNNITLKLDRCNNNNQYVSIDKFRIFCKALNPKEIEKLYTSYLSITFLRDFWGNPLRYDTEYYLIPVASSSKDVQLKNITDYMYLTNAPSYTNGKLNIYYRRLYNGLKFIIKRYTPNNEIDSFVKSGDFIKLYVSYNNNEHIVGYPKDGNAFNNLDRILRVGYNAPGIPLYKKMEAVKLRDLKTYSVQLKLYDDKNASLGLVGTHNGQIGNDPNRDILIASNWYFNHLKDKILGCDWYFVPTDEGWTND
Experiment: competition ELISA on TeNT, binder biotinylated; competitor mAb 6E7; also: test concentration or dose not given here
Known % inhibition of binding of a selection of binders

>  <BINDER>
SVT22L (VHH) VHH: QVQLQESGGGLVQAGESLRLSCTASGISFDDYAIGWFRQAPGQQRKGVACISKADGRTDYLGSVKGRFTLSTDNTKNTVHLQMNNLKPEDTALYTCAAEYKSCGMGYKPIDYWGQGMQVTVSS

>  <% inhibition of binding (%)>
8

$$$$
>  <BINDER>
SVT03L (VHH) VHH: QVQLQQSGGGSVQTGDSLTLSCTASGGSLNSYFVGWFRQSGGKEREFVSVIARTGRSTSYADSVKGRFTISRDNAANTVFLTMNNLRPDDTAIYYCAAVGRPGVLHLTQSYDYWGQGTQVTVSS

>  <% inhibition of binding (%)>
-12

$$$$
>  <BINDER>
SVT15L-3FW4M (VHH) VHH: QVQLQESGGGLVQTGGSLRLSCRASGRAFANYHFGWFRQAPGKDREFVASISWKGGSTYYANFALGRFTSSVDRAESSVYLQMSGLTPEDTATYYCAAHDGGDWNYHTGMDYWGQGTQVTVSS

>  <% inhibition of binding (%)>
6

$$$$
>  <BINDER>
SVT08L (VHH) VHH: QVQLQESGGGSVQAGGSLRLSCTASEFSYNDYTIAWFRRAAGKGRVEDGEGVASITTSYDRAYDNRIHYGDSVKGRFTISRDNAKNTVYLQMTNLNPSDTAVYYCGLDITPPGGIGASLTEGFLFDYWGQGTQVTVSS

>  <% inhibition of binding (%)>
66

$$$$
>  <BINDER>
SVT34L (VHH) VHH: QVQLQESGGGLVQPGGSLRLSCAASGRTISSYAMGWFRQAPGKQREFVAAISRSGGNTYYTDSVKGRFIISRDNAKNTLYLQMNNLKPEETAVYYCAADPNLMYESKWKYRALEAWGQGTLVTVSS

>  <% inhibition of binding (%)>
10

$$$$
>  <BINDER>
SVT13L (VHH) VHH: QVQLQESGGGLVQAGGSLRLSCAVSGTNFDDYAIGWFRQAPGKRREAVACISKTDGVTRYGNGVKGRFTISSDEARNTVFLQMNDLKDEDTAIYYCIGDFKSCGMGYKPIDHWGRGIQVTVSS

>  <% inhibition of binding (%)>
2

$$$$
>  <BINDER>
SVT02L (VHH) VHH: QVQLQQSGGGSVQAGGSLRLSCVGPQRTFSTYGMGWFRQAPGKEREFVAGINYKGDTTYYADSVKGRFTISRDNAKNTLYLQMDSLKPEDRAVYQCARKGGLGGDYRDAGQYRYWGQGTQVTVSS

>  <% inhibition of binding (%)>
8

$$$$
>  <BINDER>
SVT15L (VHH) VHH: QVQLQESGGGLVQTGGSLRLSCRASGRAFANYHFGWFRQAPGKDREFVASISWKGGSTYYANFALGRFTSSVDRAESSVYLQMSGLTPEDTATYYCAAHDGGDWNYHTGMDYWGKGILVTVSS

>  <% inhibition of binding (%)>
6

$$$$
>  <BINDER>
SVT16L (VHH) VHH: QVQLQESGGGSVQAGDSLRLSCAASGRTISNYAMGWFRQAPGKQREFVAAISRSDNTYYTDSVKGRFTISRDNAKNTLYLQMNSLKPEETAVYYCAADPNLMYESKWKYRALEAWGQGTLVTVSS

>  <% inhibition of binding (%)>
6

$$$$
>  <BINDER>
SVT06L (VHH) VHH: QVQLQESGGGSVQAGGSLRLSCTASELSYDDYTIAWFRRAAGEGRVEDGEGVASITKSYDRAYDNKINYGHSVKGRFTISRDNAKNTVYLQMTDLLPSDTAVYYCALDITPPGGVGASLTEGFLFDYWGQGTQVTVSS

>  <% inhibition of binding (%)>
67

$$$$
